- Test system: HCT-15 colon
- method: NCI-60 one-dose screen, 48 h
- condition-details: 10 µM unless noted
Compounds without any hit were thinned out: in the full panel of roughly 83,000, 20% have a hit. Activity calls are given as the source filed them. How the source made its calls: active means growth percent below 10; inactive means the rest.
The reply should name one outcome from active, inactive

Solved cases below.
compound | label-class
Brc1ccc(Nc2csc(-c3ccccn3)n2)cc1 | inactive
O=C(N/N=C/c1ccc(Oc2ccccc2)cc1)c1cnn2c1NC(c1ccccc1)C2 (centres undefined) | inactive
CCCCCOc1ccc(/C=N/Nc2cc(C)nc3ccc(Cl)cc23)cc1 | active
COc1ccc(C(=O)Cn2c(C(=O)c3ccccc3)nc3ccccc32)cc1 | inactive
CCCCOc1ccc(/C(C)=N/Nc2cc(C)nc3ccc(Br)cc23)cc1 | active

Entry COc1cc(/C=C/C(=O)c2nc3cc(F)ccc3nc2C)cc(OC)c1OC : call = ? inactive

Write down the call the test reported for this compound. Item: CCOC(=O)Oc1c(OC)cc(C(=O)c2ccc(OC)c(O)c2OC)cc1OC inactive

Just curious, what result did CCNc1nc2ccc(Nc3ccnc4cc(Cl)ccc34)cc2[nH]1 get here? inactive

I'd appreciate the recorded outcome for O=C1Nc2cc(-c3cccc(O)c3)ccc2/C1=C/c1ccc[nH]1 from this test. active

Can you look up the reported call for C[C@@H](Nc1ncnc2ccc(-c3cnc(N)nc3)cc12)c1ccc(F)cc1 for me? inactive

Field: outcome | Entry: Cc1c(C)c([N+](=O)[O-])c(C)c([N+](=O)[O-])c1C inactive

GET /call?item= O=c1ccc(-c2nc(N3CCOCC3)c3ccccc3n2)c[nH]1 returns the recorded outcome of this test. inactive

Please indicate how the test categorized NC(=S)N1N=C(c2ccccc2)CC1c1cn(-c2ccccc2)nc1-c1ccc(OCc2ccccc2)cc1 (centres undefined) . inactive

Each compound tested received a call. Report the one for CC(=O)OC[C@]12CC[C@@H](C(=O)CBr)[C@@H]1[C@H]1CC[C@@H]3[C@@]4(C)CC[C@H](OC(C)=O)C(C)(C)[C@@H]4CC[C@@]3(C)[C@]1(C)CC2 . inactive

* * *

The reader will find reported growth values listed item by item below.
- Test system: HCT-15 colon
- method: NCI-60 one-dose screen, 48 h (100 = growth as untreated, 0 = no growth, -100 = all killed)
- condition-details: 10 µM unless noted
Compounds without any hit were thinned out: in the full panel of roughly 83,000, 20% have a hit.
Give your result in % as a bare value.

Worked examples follow.
compound | quantity-unit | measured-value
O=C1c2ccc3c4c(ccc(c24)C(=O)N1CCCNCc1ccccc1F)C(=O)N(CCCNCc1ccccc1F)C3=O | % | -60.6
COc1cc(-c2cc(-c3ccc(N(C)C)cc3)nc(N3CCOCC3)c2C#N)cc(OC)c1OC | % | 44.1
N#CC(C#N)=Cc1cc2ccccc2nc1Oc1ccc(C(F)(F)F)cc1 | % | 85.1

Look up and state reported growth for N/C(=N\C(N)=N\c1nc2ccccc2s1)c1cccc(Cl)c1 32.1

Annotate the compound Cc1ccc(S(=O)(=O)Nn2c3c(cc(-c4nc5ccccc5s4)c2=O)CCCCCC3)cc1 with its measured growth. 97

Specify growth for O=C(c1ccccc1)N1N=C(c2ccc(-n3ccc(C(F)(F)F)n3)c(F)c2)CC1c1ccc[nH]1 (stereo unspecified) and stop. 100

* * *

Each entry below carries its recorded growth.
- Tested on: CAKI-1 renal
- method: NCI-60 one-dose screen, 48 h (100 = growth as untreated, 0 = no growth, -100 = all killed)
- condition-details: 10 µM unless noted
This is part of a sample that, as a whole, favours compounds with a hit. Of some 83,000 tested, about 20% had one in any assay.
Expressed in %, but write only the number.

Before answering, review these 4 worked examples.
compound | experimental-system | quantity-unit | growth
OCc1cnc2ccccc2c1NC1CCCCCC1 | CAKI-1 renal | % | 73.1
CCN(CC)c1ccc(/C=N/NC(=O)CSc2nc3ccccc3c(=O)n2CCc2ccc(S(N)(=O)=O)cc2)c(O)c1 | CAKI-1 renal | % | 36
COc1ccc2c(c1)C(=O)CC(c1ccccc1OC)O2 (stereo not given) | CAKI-1 renal | % | 89.2
CCOC(=O)c1cc(C#N)n2ccc3ccccc3c12 | CAKI-1 renal | % | 90.2

Recall and state the measured growth for COc1ccc(C(=O)CSc2nc(-c3cc(OC)ccc3OC)cc(-c3ccc(Cl)cc3)c2C#N)cc1 . 64.9

* * *

- Tested on: SK-MEL-2 melanoma
- method: NCI-60 one-dose screen, 48 h
- condition-details: 10 µM unless noted
This is part of a sample that, as a whole, favours compounds with a hit. Of some 83,000 tested, about 20% had one in any assay. Active and inactive are the calls of the source. The calls were made as follows: active = growth percent below 10; inactive = the rest.
// classify into active, inactive

Reference set (5 entries):
compound | label-class
O=C1Nc2ccccc2/C1=C\c1c(-c2ccc(F)cc2)nc2ccccn12 | inactive
COc1ccc(OC)c(-c2cc(-c3ccc(Cl)cc3)c3c(N)c(C(=O)c4ccc(Cl)cc4)sc3n2)c1 | inactive
O=C(c1nc2ccccc2[nH]1)C1C(c2ccc(Br)cc2)C2CC3CCCC[C@H]3N2[C@@]12C(=O)Nc1cc(Cl)ccc12 (stereo partly drawn) | inactive
CCCCCCCCCCCCCCCC[N+]1(C)CCN(SN2CC[N+](C)(CCCCCCCCCCCCCCCC)CC2)CC1 | inactive
COc1cc2c(=O)n(CCN(C)C)c3c4cc5c(cc4ccc3c2cc1OC)OCO5 | active

Okay, now this compound:
What classification did COc1ccc(/C=C/c2nc(Nc3cccc(NC(C)=O)c3)c3ccccc3n2)cc1 end up with in this test? inactive

* * *

- Tested on: UO-31 renal
- method: NCI-60 one-dose screen, 48 h (100 = growth as untreated, 0 = no growth, -100 = all killed)
- condition-details: 10 µM unless noted
This is part of a sample that, as a whole, favours compounds with a hit. Of some 83,000 tested, about 20% had one in any assay. Activity calls are given as the source filed them. The calls were made as follows: active = growth percent below 10; inactive = the rest.
assay-metric: growth

given-smiles | experimental-system | growth
CCOC(=O)/C(C#N)=C1/NNC(=Nc2cccnc2)S1 | UO-31 renal | 92.1% (inactive)

Output measured growth for this item: C[C@H]1[C@H]2[C@H]3CC[C@@H]4[C@@]5(C)CC[C@H](O)C(C)(C)[C@@H]5CC[C@@]4(C)[C@]3(C)CC[C@]23CO[C@]1(C)[C@@H](C(=O)/C=C\c1ccco1)C3 77% (inactive)

Answer with reported growth of O=C1c2ccc3c4c(ccc(c24)C(=O)N1CCCNCc1ccccc1Cl)C(=O)N(CCCNCc1ccccc1Cl)C3=O -35% (active)

* * *

- Test system: SK-MEL-5 melanoma
- method: NCI-60 one-dose screen, 48 h (100 = growth as untreated, 0 = no growth, -100 = all killed)
- condition-details: 10 µM unless noted
About 83,000 compounds went through this panel and 20% of them were active in at least one assay; those are over-represented in the sample as a whole.
assay-metric: growth (%)
The answer is to be given in %; state only the numeric part.

compound | experimental-system | quantity-unit | measured-value
CN1CCN(CCNc2nccc(-c3c(-c4cccc(O)c4)nc4sccn34)n2)S1(=O)=O | SK-MEL-5 melanoma | % | 33

Using the record for O=C(O)c1ccc(NCc2cn(-c3ccc(C(F)(F)F)cc3)nc2-c2ccc(C(=O)O)cc2)cc1 , state its measured growth. 103

Give growth for COc1cc(/C=C/C(=O)c2nc3cc(F)ccc3nc2C)cc(OC)c1OC 81

Provide one value: measured growth of CCOC(=O)C1=C(CCl)NC(=O)NC1c1ccc2c(c1)OCO2 (centres undefined) 9.17

Return growth (reported value) for this compound: CCOC(=O)c1nc2c3ccccc3ccn2c1C(=O)OCC 98.2

Query growth for O=C1NN(C(=O)c2ccccc2)C(c2ccc(Cl)c(Cl)c2)=C/C1=C\c1ccc([N+](=O)[O-])cc1 86.8

Look up and report measured growth for this entry: COc1cc2oc(-c3cccc(C(=O)Nc4ccc(Br)cc4)c3)cc(=O)c2c(OC)c1OC 56.3

Give reported growth value for OCc1cnccc1NCCCOc1ccccc1 97.1

Answer with the recorded growth of COc1cc2c(c(O)c1Cl)C(=O)c1c(O)cc(C[C@H](C)O)cc1[C@H]2[C@H]1c2cc(C[C@H](C)O)cc(O)c2C(=O)c2c1cc(OC)c(Cl)c2O only. -65.7

* * *

- Tested on: 786-0 renal
- method: NCI-60 one-dose screen, 48 h
- condition-details: 10 µM unless noted
- Experimental: Cells are grown in 96 well plates and exposed to the test compound for 48 hours. Compounds are tested at a single concentration, which is 10^-5 M for most compounds. The reported endpoint is percent growth (GI% or GIPRCNT), where numbers from 0 - 100% represent growth inhibition, and numbers from -100% - 0 represent cell death. For example, a value of 40 represents 60% growth inhibition. A value of 0 means no net growth occurred over the course of the experiment. […]
Compounds without any hit were thinned out: in the full panel of roughly 83,000, 20% have a hit. Active and inactive are the calls of the source. The calls were made as follows: active = growth percent below 10; inactive = the rest.
The reply should name one outcome from class 1 for active, class 0 for inactive

Here's what some known entries look like.
given-smiles | label-class
CCOC(=O)C1=C(C)NC(SCc2cc(=O)oc3ccc(F)cc23)=N[C@@H]1c1cccc2ccccc12 | class 0
Nc1c(C(=O)Nc2cccc3cnccc23)sc2nc3c(cc12)C(=O)CCC3 | class 0
COc1cc2nc(-c3ccc(C(F)(F)F)cc3)cc(OCCCN3CCOCC3)c2cc1OC | class 0

Recorded call for N#Cc1c(NC(=O)NCc2ccccc2)sc2c1CCCCC2 ? class 0

Could you check what this test reported for Cc1c(C)c([N+](=O)[O-])c(C)c([N+](=O)[O-])c1C ? class 0

Recorded test call requested for COc1cc(/C=C\c2cc(OC)c(OC)c(OC)c2)cc(N)c1OC class 0
